Reference source: patent US20220259306A1

The entries below come with measured kon values attached.
Biological target: T1, hFc-tagged NKG2A/CD94 protein (NKG2A/CD94-hFc), immunogen A (human, UniProt P26715 94-233; Q13241 32-179, biotin-labeled in the Octet assays (site not stated))
T1 construct: Heterodimer of the extracellular domains of NKG2A and CD94, each with hFc; also called human-derived NKG2A/CD94-ECD-Fc; hNKG2A/CD94-ECD-Fc; not shown: human IgG Fc fragment (hFc) of the pCpC vector
T1 sequence (P26715 94-233 limits assumed, chain 1 of 2): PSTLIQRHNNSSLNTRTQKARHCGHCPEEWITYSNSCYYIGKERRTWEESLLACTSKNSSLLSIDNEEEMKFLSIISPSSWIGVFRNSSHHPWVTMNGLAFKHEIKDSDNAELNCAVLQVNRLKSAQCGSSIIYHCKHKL
T1 sequence (Q13241 32-179 limits assumed, chain 2 of 2): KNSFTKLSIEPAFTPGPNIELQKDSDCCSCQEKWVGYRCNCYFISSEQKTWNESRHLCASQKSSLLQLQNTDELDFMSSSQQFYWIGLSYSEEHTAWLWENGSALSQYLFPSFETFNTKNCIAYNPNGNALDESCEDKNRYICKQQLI
Assay: BLI (Octet red96), biotinylated immunogen A on streptavidin sensor, antibody in solution
From the text: An Octet red96 instrument (purchased from Fortiebio) was used to determine the affinity constant. The specific operations and methods are based on the instrument manual and the detailed methods provided by the manufacturer. Specifically: using a streptavidin sensor (SA sensor, purchased from Fortiebio) for affinity determination.
Provide the reading as a plain figure in M⁻¹ s⁻¹.

1. Mab032 (antibody, V domains shown) VH: EVQLQQSVAELVRPGASVRLSCTGSGFNIENTYMHWLKQRPEQGLEWIGRIDPADGDTQYAPKFQGKATITTDTSSNTAYLQLSSLTSEDTAIYYCARYGNYLFYYSMDYWGQGTSVTVSS VL: DIVMTQAAPSVPVTPGESVSISCRSSKSLLHSNGNTYLYWFLQRPGQSPQLLIYRMSNLASGVPDRFSGSGSATAFTLRISRVEAEDVGIYYCMQHLEYPYTFGGGTKLEIK ... 1.03e+06
2. Tab1 (Z270) (antibody, V domains shown) VH: EVQLVESGGGLVKPGGSLRLSCAASGFTFSSHSMNWVRQAPGKGLEWVSAISSSSSYIYYADSVKGRFTISRDNAKNSLYLQMNSLRAEDTAVYYCAREEWGLPFDYWGQGTLVTVSS VL: AIQLTQSPSSLSASVGDRVTITCRASQGISSALAWYQQKPGKAPKLLIYDASSLKSGVPSRFSGSGSGTDFTLTISSLQPEDFATYYCQQFNSYPLTFGQGTRLEIK ... 1.33e+06
3. Mab033 (antibody, V domains shown) VH: EVQLQQSVAEFVRPGASVRLSCTASGFNIENTYIHWLKQRPEQGLEWIGRIDPANGDTQYDPKFQGKATLTAATSSNTAYLQLSGLTSEDTAIYYCTRYGDYLFYYSLKYWGQGTSVTVSS VL: DIVMTQAAPSVSVTPGESVSISCRSSKSLLHSNGNTYLYWFLQRPGQSPQLLIYRMSNLASGVPDRFSGSGSGTAFTLRISRVEAEDVGVYYCMQHLESPYTFGGGTKLEIK ... 1.12e+06

# next binder below
response.value for Mpb416 (antibody, V domains shown, also called 12G8 (as full antibody)) VH: QVQLQQSVAELVRPGASVKLSCTASGFNIQNTYIHWVKQRPEQGLEWIGKIDPANGDTKYAPTFQGKATITADTSSNTAYLQLSSLTPEDTAIYYCARYRDYLFYYALGYWGQGTSVTVSS VL: DIVMTQSAPSVPVTPGESVSISCRSSKSLLHSNGNTYLYWFLQRPGQSPQLLIYRMSNLASGVPDRFSGSGSGTAFTLRISRVEAEDVGVYYCMQHLEYPYTFGGGTKLEIK (field: kon) = 995000
